# measuredOn: huPD-L1 (Homo sapiens, UniProt Q9NZQ7)
# Sequence (Q9NZQ7 19-290): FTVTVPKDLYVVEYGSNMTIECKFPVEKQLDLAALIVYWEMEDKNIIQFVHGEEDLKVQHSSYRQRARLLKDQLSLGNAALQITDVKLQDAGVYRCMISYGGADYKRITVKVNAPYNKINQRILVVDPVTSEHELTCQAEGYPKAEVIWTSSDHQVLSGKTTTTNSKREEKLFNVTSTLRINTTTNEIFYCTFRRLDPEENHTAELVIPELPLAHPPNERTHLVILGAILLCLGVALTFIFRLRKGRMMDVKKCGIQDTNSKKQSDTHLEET
# experimentalProtocol: Flow binding to CHO cells stably expressing PD-L1
# Parameters: huCTLA4 and huPD-L1, full-length mammalian surface expression constructs were generated; expressed in transfected cells; host or cells: CHO cells, lentiviral transduction, sorted to >98% purity
# recordedConditions: Table E19; MFI at 33.3 nM relative to WT CD80 ECD-Fc (Abcam)
valueType: PD-L1 Fold change to WT CD80

molecule="E35D/D46V/M47L/V68M/L85Q (protein) VIHVTKEVKEVATLSCGHNVSVEELAQTRIYWQKDKKMVLTMMSGVLNIWPEYKNRTIFDITNNLSIMILALRPSDEGTYECVVQKYEKDAFKREHLAEVTLSVKAD" experimentalresult="222.0 fold"
molecule="K89N (protein) VIHVTKEVKEVATLSCGHNVSVEELAQTRIYWQKEKKMVLTMMSGDMNIWPEYKNRTIFDITNNLSIVILALRPSDEGTYECVVLKYENDAFKREHLAEVTLSVKAD" experimentalresult="0.4 fold"
molecule="E35D/D46V/M47V/V68M/L85Q (protein) VIHVTKEVKEVATLSCGHNVSVEELAQTRIYWQKDKKMVLTMMSGVVNIWPEYKNRTIFDITNNLSIMILALRPSDEGTYECVVQKYEKDAFKREHLAEVTLSVKAD" experimentalresult="205.4 fold"
molecule="D46V/L85Q (protein) VIHVTKEVKEVATLSCGHNVSVEELAQTRIYWQKEKKMVLTMMSGVMNIWPEYKNRTIFDITNNLSIVILALRPSDEGTYECVVQKYEKDAFKREHLAEVTLSVKAD" experimentalresult="17.2 fold"
